Cited source: patent US20260159500A1

- ASSAY SYSTEM: Human KIF18A (amino acid sequence 1-417) (Homo sapiens)
- Sequence (Q8NI77 1-417): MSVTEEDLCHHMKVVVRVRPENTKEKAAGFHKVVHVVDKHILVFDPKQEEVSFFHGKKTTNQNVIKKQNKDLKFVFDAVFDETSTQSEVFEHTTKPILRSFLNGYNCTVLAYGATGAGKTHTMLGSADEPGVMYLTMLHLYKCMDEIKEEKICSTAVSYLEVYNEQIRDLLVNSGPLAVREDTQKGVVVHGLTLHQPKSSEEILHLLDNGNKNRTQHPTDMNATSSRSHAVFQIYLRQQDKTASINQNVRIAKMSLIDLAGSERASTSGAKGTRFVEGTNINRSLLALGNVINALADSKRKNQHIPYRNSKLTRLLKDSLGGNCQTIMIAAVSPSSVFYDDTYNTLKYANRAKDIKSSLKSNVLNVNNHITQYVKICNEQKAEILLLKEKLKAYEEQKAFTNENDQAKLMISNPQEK
- TEST NAME: Enzymatic activity test (ADP-Glo, microtubule-stimulated KIF18A ATPase)
- EXPERIMENTAL PARAMETERS: 60 μg/mL microtubules, 25 μM ATP, 2.5 nM KIF18A protein, 120 min at ambient temperature, read-out: KIF18A_nM
pIC50: −log10 of the molar value.
QUANTITY NAME: pIC50

# annotated cases, reported pIC50 shown
CCC1(C)OCc2c1cc(NC(=O)c1ccc(NS(=O)(=O)CCO)cc1N1CCC3(CC1)CC3)nc2N1CCC(F)(F)CC1 (stereo not drawn) :: 5.56
O=C(Nc1nc(N2CCC(F)(F)CC2)cc2nccn12)c1ccc(NS(=O)(=O)CCO)cc1N1CCC2(CC1)CC2 :: 5.71
O=C(Nc1cc2nsnc2c(N2CCC(F)(F)CC2)n1)c1ccc(NS(=O)(=O)CCO)cc1N1CCC2(CC1)CC2 :: 7.42
O=C(Nc1cc(N2CCC(F)(F)CC2)c2ncnn2c1)c1ccc(NS(=O)(=O)CCO)cc1N1CCC2(CC1)CC2 :: 7.92
Cc1cnc2c(N3CCC(F)(F)CC3)c(F)c(NC(=O)c3ccc(NS(=O)(=O)CCO)cc3N3CCC4(CC3)CC4)cc2c1 :: 6.47
O=C(Nc1cc2c(c(N3CCC(F)(F)CC3)n1)COC2)c1ccc(NS(=O)(=O)CCO)cc1N1CCC2(CC1)CC2 :: 7.55

1. NC(=O)c1cnc2c(N3CCC(F)(F)CC3)cc(NC(=O)c3ccc(NS(=O)(=O)CCO)cc3N3CCC4(CC3)CC4)cc2c1
2. O=C(Nc1cc(N2CCC(F)(F)CC2)c2nc(O)ccc2c1)c1ccc(NS(=O)(=O)CCO)cc1N1CCC2(CC1)CC2
Which value of pIC50 is smaller, the one for 1 or the one for 2 ? Mark your answer with the label of the selected entry.
1
(1: 7.39, 2: 7.64)
